Ref: ChEMBL document CHEMBL1151538

# System under test: Beta-lactamase OXA-1 (Escherichia coli, UniProt P13661)
# Sequence (P13661 whole entry): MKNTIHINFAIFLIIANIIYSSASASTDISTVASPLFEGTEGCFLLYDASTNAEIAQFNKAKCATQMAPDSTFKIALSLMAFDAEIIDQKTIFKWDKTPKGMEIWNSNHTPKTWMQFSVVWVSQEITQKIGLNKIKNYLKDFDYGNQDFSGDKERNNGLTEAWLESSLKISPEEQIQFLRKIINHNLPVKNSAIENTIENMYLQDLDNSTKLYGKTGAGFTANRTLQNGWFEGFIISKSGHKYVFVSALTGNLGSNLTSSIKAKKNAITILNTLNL
# Assay summary: Inhibitory activity against Escherichia coli HA209 Class-V OXA-1 type beta-lactamase enzyme
Catalogue of pIC50 readings, one per entry.
The value called pIC50 is obtained by taking minus log10 of the concentration in mol/L.

Consider the following illustrative entries.
In [3]: df
Out[3]:
                                   compound                         system_under_test  endpoint_result
0  C[C@]1(CSc2nc3ccccc3o2)[C@H](C(=O)O)N2C(=O)C[C@H]2S1(=O)=O  Beta-lactamase OXA-1 (Escherichia coli, UniProt P13661)             7.08
1  C[C@@]1(CSc2nc3ccccc3s2)S[C@@H]2[C@H](Br)C(=O)N2[C@H]1C(=O)O  Beta-lactamase OXA-1 (Escherichia coli, UniProt P13661)             5.85
2  Cn1nnnc1SC[C@]1(C)S[C@@H]2[C@H](Br)C(=O)N2[C@H]1C(=O)O  Beta-lactamase OXA-1 (Escherichia coli, UniProt P13661)             5.09
3  C[C@]1(CSC2=NCCS2)[C@H](C(=O)O)N2C(=O)C[C@H]2S1(=O)=O  Beta-lactamase OXA-1 (Escherichia coli, UniProt P13661)             6.94
4  Cn1ccnc1SC[C@]1(C)S[C@@H]2[C@H](Br)C(=O)N2[C@H]1C(=O)O  Beta-lactamase OXA-1 (Escherichia coli, UniProt P13661)             4.99
5  Cn1ccnc1SC[C@@]1(C)[C@H](C(=O)O)N2C(=O)C[C@H]2S1(=O)=O  Beta-lactamase OXA-1 (Escherichia coli, UniProt P13661)             6.33
6  Cn1nnnc1SC[C@@]1(C)[C@H](C(=O)O)N2C(=O)C[C@H]2S1(=O)=O  Beta-lactamase OXA-1 (Escherichia coli, UniProt P13661)             7.04

Which pIC50 value is on record for CC1(C)[C@H](C(=O)O)N2C(=O)C[C@H]2S1(=O)=O [SULBACTAM] ?
5.86
